Experiment: Rifaximin systemic exposure/pharmacokinetics in healthy subjects, IBS subjects and liver impaired subjects
Type: in vivo, human
Conditions: human, plasma, 550 mg, subjects with non-c-IBS; single dose; read-out: Mean AUCtau
readout.kind: AUC (ng·h/mL)
Express the result in ng·h/mL but write the number alone.

Request: Entry CO[C@H]1/C=C/O[C@@]2(C)Oc3c(C)c(O)c4c(O)c(c5c(nc6cc(C)ccn65)c4c3C2=O)NC(=O)/C(C)=C\C=C\[C@H](C)[C@H](O)[C@@H](C)[C@@H](O)[C@@H](C)[C@H](OC(C)=O)[C@@H]1C [Rifaximin] : reported AUC = ?
Result: 9.69

###

Assay: Crossover drug interaction study: oral cyclosporine 600 mg on pharmacokinetics of single-dose rifaximin 550 mg
Assay type: in vivo, human
Conditions: both sexes, human, plasma, oral, 550 mg
readout.kind: AUC(0-inf)
# do not omit the unit; it follows the number

Request: // lookup AUC(0-inf) for CO[C@H]1/C=C/O[C@@]2(C)Oc3c(C)c(O)c4c(O)c(c5c(nc6cc(C)ccn65)c4c3C2=O)NC(=O)/C(C)=C\C=C\[C@H](C)[C@H](O)[C@@H](C)[C@@H](O)[C@@H](C)[C@H](OC(C)=O)[C@@H]1C [Rifaximin]
Result: 2.53 ng·h/mL

###

Test: Crossover drug interaction study: oral cyclosporine 600 mg on pharmacokinetics of single-dose rifaximin 550 mg
Assay type: in vivo, human
Settings: both sexes, human, plasma, oral, 550 mg
readout.kind: Cmax (ng/mL)
Reply numerically in ng/mL, unit not repeated.

Request: Query: Cmax; subject: CO[C@H]1/C=C/O[C@@]2(C)Oc3c(C)c(O)c4c(O)c(c5c(nc6cc(C)ccn65)c4c3C2=O)NC(=O)/C(C)=C\C=C\[C@H](C)[C@H](O)[C@@H](C)[C@@H](O)[C@@H](C)[C@H](OC(C)=O)[C@@H]1C [Rifaximin]
Result: 0.48

###

Assay: Rifaximin systemic exposure/pharmacokinetics in healthy subjects, IBS subjects and liver impaired subjects
Assay type: in vivo, human
Details: human, plasma, oral, 550 mg, IBS-D Patients; 550 mg Single-Dose (Day 1); N = 24; read-out: AUCtau, mean (SD)
readout.kind: AUC
# answer = value followed by unit

Request: Item "CO[C@H]1/C=C/O[C@@]2(C)Oc3c(C)c(O)c4c(O)c(c5c(nc6cc(C)ccn65)c4c3C2=O)NC(=O)/C(C)=C\C=C\[C@H](C)[C@H](O)[C@@H](C)[C@@H](O)[C@@H](C)[C@H](OC(C)=O)[C@@H]1C" has what recorded AUC?
Result: 9.69 ng·h/mL

###

Assay: Rifaximin systemic exposure/pharmacokinetics in healthy subjects, IBS subjects and liver impaired subjects
Assay type: in vivo, human
Conditions: human, plasma, 550 mg, subjects with non-c-IBS; multiple TID doses; read-out: Mean AUCtau
Method: Subjects with non-c-IBS had mean AUCtau values following a single dose and multiple TID doses of 9.69 ng·h/mL and 16.0 ng·h/mL, respectively, reflecting an accumulation ratio (Rc; multiple-dose AUCtau/single-dose AUCtau) of 1.77. […] Pharmacokinetic parameters were measured after a single dose and multiple doses (14 days).
readout.kind: AUC
Mention the unit after the number when you answer.

Request: Record request: AUC value, item "CO[C@H]1/C=C/O[C@@]2(C)Oc3c(C)c(O)c4c(O)c(c5c(nc6cc(C)ccn65)c4c3C2=O)NC(=O)/C(C)=C\C=C\[C@H](C)[C@H](O)[C@@H](C)[C@@H](O)[C@@H](C)[C@H](OC(C)=O)[C@@H]1C"
Result: 16 ng·h/mL
